# System: OCI-AML2
# protocol: cell viability relative to vehicle control; higher = less cytotoxic;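 also: after 48 h exposure read by CellTiter-Glo luminescence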
# testConditions: 10 µM; SRSF2 genotype: wt/wt
Counter-ions that a name gives are not always drawn.
outcomeMeasure: cell viability (%)
Answers are plain numbers, in %.

Previously resolved entries follow.
N#CC(C#N)=NNc1ccc(OC(F)(F)F)cc1; 8.68
COC1=C[C@@H]2[C@@H]3Cc4ccc(OC)c(O)c4[C@]2(CCN3C)CC1=O [Sinomenine (Cucoline)]; 97.8

Parameters: items (list). Returns: cell viability for each item.
1. CC[C@H]1[C@@H]2C[C@H]3[C@@H]4N(C)c5ccccc5[C@]45C[C@@H]([C@@H]2[C@H]5O)N3[C@@H]1O
2. CC(C)(C)c1cc(C=C(C#N)C#N)cc(Br)c1O
3. CC[C@H]1CN2CC[C@H]1C[C@H]2[C@H](O)c1ccnc2ccc(OC)cc12 [Hydroquinine]
4. CCN1C[C@]2(COC)CC[C@H](OC)[C@]34C1[C@H]([C@H](OC)[C@H]23)[C@@]1(OC(C)=O)C[C@H](OC)[C@@]2(O)C[C@@H]4[C@@H]1[C@H]2OC(=O)c1ccc(OC)cc1
5. Cc1cccc(Cc2c[nH]cn2)c1C [Detomidine HCl]
6. COP(=O)(OC)SCn1c(=O)oc2cc(Cl)cnc21

[97.9, 89.6, 110, 100, 93.1, 106]

###

# Tested on: MARIMO
# protocol: cell viability relative to vehicle control; higher = less cytotoxic
# testConditions: 10 µM; SRSF2 genotype: SRSF2 P95H/wt
Exercise: state measured cell viability for each of the compounds provided.
State the result as a value with its unit after it.

Parameters: items (list). Returns: cell viability for each item.
1. CC(C)=CCC[C@](C)(O)[C@H]1CC[C@]2(C)[C@@H]1[C@H](O)C[C@@H]1[C@@]3(C)CC[C@H](O[C@@H]4O[C@H](CO)[C@@H](O)[C@H](O)[C@H]4O)C(C)(C)[C@@H]3CC[C@]12C [20S-Ginsenoside Rh2]
2. COc1cc(C(=O)O)cc(OC)c1OC [Gallic acid trimethyl ether]
3. CC(C)C(Br)C(=O)NC(N)=O (centres undefined) [Bromisoval]

1. 104%
2. 102%
3. 95.8%

###

# Tested on: OCI-AML2
# protocol: cell viability relative to vehicle control; higher = less cytotoxic
# testConditions: 10 µM; SRSF2 genotype: wt/wt
outcomeMeasure: cell viability (%)
One number for each entry, in %.

Previously resolved entries follow.
CN1CCN(c2nc3ccccc3nc2Cl)CC1; 102
C[C@]12CC[C@H]3[C@@H](CC[C@@]45O[C@@H]4C(O)=C(C#N)C[C@]35C)[C@@H]1CC[C@@H]2O [Trilostane]; 118
CCC1CN2CCC3(C(=O)Nc4ccccc43)C2CC1C(=COC)C(=O)OC (configuration not stated) [Isorhychophylline]; 89.8
CC(C)c1ccc2c(c1O)CC[C@H]1C3=C(CC[C@]21C)C(=O)OC3 [Triptophenolide]; 61.7
C[C@H]1CC[C@@H]2N(C1)C[C@H]1[C@@H]3C[C@H]4[C@@H](C[C@H](O)[C@H]5C[C@@H](O)CC[C@@]54C)[C@@H]3CC[C@@H]1[C@]2(C)O [Peimine]; 106
CC1=C[C@@H]2C(=O)[C@]3(C=C(C)[C@H](O)[C@@]3(O)[C@@H]1O)[C@H](C)C[C@@H]1[C@H]2C1(C)C [20-Deoxyingenol]; 52

Could you tell me which cell viability is on file for CCOc1ccccc1-n1c(C(C)N2CCN(C(=O)COc3ccc(Cl)cc3)CC2)nc2ccccc2c1=O (configuration not stated) [Erastin] ?
12.4

###

Exercise: state measured cell viability for each of the compounds provided.
# Tested on: OCI-AML2
# protocol: cell viability relative to vehicle control; higher = less cytotoxic
# testConditions: 10 µM; SRSF2 genotype: P95H/wt
Where a name gives a salt, the structure may show the parent alone.
Answers are plain numbers, in %.

Previously resolved entries follow.
CN(C)C1C(=O)C(C(N)=O)=C(O)C2(O)C(=O)C3=C(O)c4c(O)cccc4C(C)(O)C3CC12 (stereo unspecified) [Tetracycline hydrochloride]; 89.3
CC(=O)Nc1ccc(Cc2ccc(NC(C)=O)cc2)cc1; 104
CC[C@H](C)[C@@H]([C@@H](CC(=O)N1CCC[C@H]1[C@H](OC)[C@@H](C)C(=O)N[C@H](C)[C@@H](O)c1ccccc1)OC)N(C)C(=O)[C@@H](NC(=O)[C@@H](NC)C(C)C)C(C)C; 0.78
O=C(O)CCCCCCCCCO [10-Hydroxydecanoic acid]; 99.4
CN1C2CCC1CC(O)C2 (stereo unspecified); 94.5

Parameters: items (list). Returns: cell viability for each item.
1. CC(=O)OCC1=C(C(=O)O)N2C(=O)C(N)C2SC1 (stereo unspecified)
2. C[C@]12CCC(=O)C[C@@H]1CC[C@@H]1[C@@H]2CC[C@]2(C)[C@@H](O)CC[C@@H]12 [Dihydrotestosterone (DHT)]
3. CCCC[N+]1(C)[C@@H]2CC(OC(=O)[C@H](CO)c3ccccc3)C[C@H]1[C@@H]1O[C@@H]12 (stereo partly specified) [Butylscopolamine bromide (Scopolamine butylb]
4. CC[N+](C)(CC)CCOC(=O)C(O)(c1ccccc1)c1ccccc1 [Methylbenactyzine Bromide]
5. CC1=C[C@@H]2C(=O)[C@]3(C=C(C)[C@H](O)[C@@]3(O)[C@@H]1O)[C@H](C)C[C@@H]1[C@H]2C1(C)C

[109, 96.5, 94.3, 97.7, 18.2]

Parameters: items (list). Returns: cell viability for each item.
1. OC(CNc1ccccc1)Cn1c2ccc(Br)cc2c2cc(Br)ccc21 (stereo unspecified)
2. CCC1(c2ccc(N)cc2)CCC(=O)NC1=O (stereo unspecified) [Aminoglutethimide (Cytadren)]
3. C[C@]12CC[C@H](O)C[C@@H]1CC[C@@H]1[C@@H]2CC[C@]2(C)C(=O)CC[C@@H]12
4. Cc1cccc(C)c1NC(=O)CN1CCCC1=O [Nefiracetam (Translon)]

52.3
107
106
103

Parameters: items (list). Returns: cell viability for each item.
1. O=P1(N(CCCl)CCCl)NCCCO1 (stereo unspecified) [Cyclophosphamide monohydrate]
2. ClCCN(Cc1ccccc1)Cc1ccccc1 [Dibenamine Hydrochloride]

100
83.5

###

Exercise: state measured cell viability for each of the molecules provided.
# Tested on: K562
# protocol: cell viability relative to vehicle control; higher = less cytotoxic
# testConditions: 10 µM; SRSF2 genotype: SRSF2 wt/wt
State the result as a value with its unit after it.

Previously resolved entries follow.
CCC1CN2CCC3(C(=O)Nc4ccccc43)C2CC1C(=COC)C(=O)OC (centres undefined); 95.5%
C[C@]12CC[C@H](O)C[C@@]1(O)CC[C@@H]1[C@@H]2CC[C@]2(C)[C@@H](C3=CC(=O)OC3)CC[C@]12O; 12.9%
COc1ccc(C(=O)N2CCCC2=O)cc1; 110%

Could you tell me which cell viability is on file for CCNC(=O)C[C@@H]1N=C(c2ccc(Cl)cc2)c2cc(OC)ccc2-n2c(C)nnc21 ?
73.3%

###

# System: OCI-AML2
# protocol: cell viability relative to vehicle control; higher = less cytotoxic
# testConditions: 10 µM; SRSF2 genotype: wt/wt
Where a name gives a salt, the structure may show the parent alone.
Exercise: state measured cell viability for each of the compounds provided.
Answers are plain numbers, in %.

Previously resolved entries follow.
CC(C)=CCCC(C(=O)O)C1CCC2(C)C3=C(CCC12C)C1(C)CCC(=O)C(C)(C)C1CC3 (stereo not drawn) [Beta-Elemonic]; 101
CCCN1CCO[C@@H]2c3cc(O)ccc3OC[C@H]21; 93.2
CC1=C(O)C(=O)C=C2C1=CC=C1[C@@]2(C)CC[C@@]2(C)[C@@H]3C[C@](C)(C(=O)O)CC[C@]3(C)CC[C@]12C [Celastrol]; 0.44
CC(=O)O[C@H]1CC[C@H]2[C@@H]3CCC4=CC(=O)CCC4=C3C=C[C@]12C [Trenbolone acetate]; 101
CNC(C)Cc1ccccc1OC (stereo not drawn) [Methoxyphenamine Hydrochloride]; 101
Cc1cccc(C)c1NC1=NCCCS1 [Xylazine HCl]; 93.1

Parameters: items (list). Returns: cell viability for each item.
1. COc1cc2c3c(c1OC)-c1ccccc1C[C@H]3N(C)CC2 [Nuciferine]
2. CC1C(=O)OC2C(O)C34C5OC(=O)C3(OC3OC(=O)C(O)C34C(C(C)(C)C)C5O)C12O (stereo not drawn) [Ginkgolide C]

1: 106; 2: 105

###

# System: MARIMO
# protocol: cell viability relative to vehicle control; higher = less cytotoxic
# testConditions: 10 µM; SRSF2 genotype: SRSF2 P95H/wt
Where a name gives a salt, the structure may show the parent alone.
Exercise: state measured cell viability for each of the compounds provided.
Give bare numbers, in %.

Previously resolved entries follow.
CCOC(=O)Nc1ccc(NCc2ccc(F)cc2)cc1N [Retigabine]; 93.7
CN1C(=O)COc2c(C(=O)NC3CN4CCC3CC4)cc(Cl)cc21 (configuration not stated) [Azasetron HCl]; 92.8
COc1ccc2c(c1)[nH]c1c(C)nccc12 [Harmine hydrochloride]; 79.5
C=C[C@H]1CN2CC[C@H]1C[C@H]2[C@H](O)c1ccnc2ccccc12; 94.6
CC1=C(O)C(=O)C=C2C1=CC=C1[C@@]2(C)CC[C@@]2(C)[C@@H]3C[C@](C)(C(=O)O)CC[C@]3(C)CC[C@]12C; 0.44

Parameters: items (list). Returns: cell viability for each item.
1. CN1[C@@H]2CC[C@H]1C[C@@H](OC(=O)C(CO)c1ccccc1)C2 (some centres not stated) [Atropine sulfate]
2. CCC1(c2ccc(N)cc2)CCC(=O)NC1=O (configuration not stated) [Aminoglutethimide (Cytadren)]
3. CCc1c2c(nc3ccccc13)-c1cc3c(c(=O)n1C2)COC(=O)[C@]3(O)CC

[105, 96.7, 5.75]

Parameters: items (list). Returns: cell viability for each item.
1. CCCN1CCO[C@@H]2c3cc(O)ccc3OC[C@H]21
2. C/C(=C\c1csc(C)n1)[C@@H]1C[C@@H]2O[C@]2(C)CCC[C@H](C)[C@H](O)[C@@H](C)C(=O)C(C)(C)[C@@H](O)CC(=O)O1 [Patupilone (EPO906, Epothilone B)]
3. Cc1sc2c(c1C)C(c1ccc(Cl)cc1)=NC(CC(N)=O)c1nnc(C)n1-2 (configuration not stated)

1. 97.5
2. 7.88
3. 30

Parameters: items (list). Returns: cell viability for each item.
1. CC(C)=CCC[C@]1(C)C=Cc2c(O)c3c(c(CC=C(C)C)c2O1)O[C@]12C(=C[C@@H]4C[C@H]1C(C)(C)O[C@@]2(C/C=C(/C)C(=O)O)C4=O)C3=O
2. C/C(O)=C(\C#N)C(=O)Nc1cc(Br)ccc1Br
3. CN(C)CCc1ccc(O)cc1

0.39
88.4
108
